System: Candida albicans
Experiment: Antifungal activity against Candida albicans MTCC 3017 assessed as inhibition of fungal growth incubated for 24 hrs by agar well diffusion method
Assay type: functional
Details: MTCC 3017, 24 h
QUANTITY: MIC (µg/mL)

| MOLECULE | MIC (µg/mL) |
| --- | --- |
| Clc1ccc(COC(Cn2ccnc2)c2ccc(Cl)cc2Cl)c(Cl)c1 (stereo not given) | 3.9 |

1 = COc1ccc2c(c1)Cc1c(C(=O)N/N=C/c3ccc(O)c(OC)c3)n[nH]c1-2
2 = O=C(N/N=C/c1ccc(O)cc1)c1n[nH]c2c1Cc1cc(F)ccc1-2
3 = O=C(N/N=C/c1c(F)cc(F)cc1F)c1n[nH]c2c1Cc1cc(F)ccc1-2
### Prompt Arrange by MIC, high to low. Thanks in advance for listing the labels in the requested order.
### Response 3, 2, 1
(3: 31.2 µg/mL, 2: 7.8 µg/mL, 1: 3.9 µg/mL)

---

System: Candida albicans
Experiment: Fungicidal activity against Candida albicans MTCC 3018 assessed as fungal killing incubated for 24 hrs
Format: functional
Settings: MTCC 3018, 24 h
Listed here: items and their measured MFC.
Entry rule: numbers only, all in µg/mL.

// solved cases for MFC follow
| COMPOUND | SYSTEM_TESTED | QUANTITY | UNIT_STRING | REPORTED_MEASUREMENT |
| --- | --- | --- | --- | --- |
| O=C(N/N=C/c1ccc(O)cc1)c1n[nH]c2c1Cc1ccccc1-2 | Candida albicans | MFC | µg/mL | 15.6 |
| COc1ccc2c(c1)Cc1c(C(=O)N/N=C/c3ccc(O)c(OC)c3)n[nH]c1-2 | Candida albicans | MFC | µg/mL | 15.6 |
| Clc1ccc(COC(Cn2ccnc2)c2ccc(Cl)cc2Cl)c(Cl)c1 (stereo unspecified) [MICONAZOLE] | Candida albicans | MFC | µg/mL | 7.8 |

### Prompt Specify reported MFC for the compound shown: COc1cc(/C=N/NC(=O)c2n[nH]c3c2Cc2ccccc2-3)ccc1O
### Response 31.2

### Prompt Specify reported MFC for the compound shown: COc1ccc2c(c1)Cc1c(C(=O)N/N=C/c3c(F)cc(F)cc3F)n[nH]c1-2
### Response 15.6

### Prompt Specify reported MFC for the compound shown: O=C(N/N=C/c1ccc(O)cc1)c1n[nH]c2c1Cc1cc(F)ccc1-2
### Response 31.2

---

Test system: Raoultella planticola
Experiment: Bactericidal activity against Klebsiella planticola MTCC 530 assessed as bacterial killing incubated for 24 hrs
Assay type: functional
Settings: MTCC 530, 24 h
Listed here: items and their measured MBC.
Entry rule: numbers only, all in µg/mL.

// solved cases for MBC follow
| MOLECULE | MBC (µg/mL) |
| --- | --- |
| O=C(N/N=C/c1ccc(O)cc1)c1n[nH]c2c1Cc1ccccc1-2 | 15.6 |
| O=C(O)c1cn(C2CC2)c2cc(N3CCNCC3)c(F)cc2c1=O | 1.9 |
| COc1ccc2c(c1)Cc1c(C(=O)N/N=C/c3ccc(O)c(OC)c3)n[nH]c1-2 | 7.8 |

### Prompt Specify reported MBC for the compound shown: O=C(N/N=C/c1ccc(O)cc1)c1n[nH]c2c1Cc1cc(F)ccc1-2
### Response 15.6

### Prompt Specify reported MBC for the compound shown: COc1cc(/C=N/NC(=O)c2n[nH]c3c2Cc2ccccc2-3)ccc1O
### Response 7.8

### Prompt Specify reported MBC for the compound shown: COc1ccc2c(c1)Cc1c(C(=O)N/N=C/c3c(F)cc(F)cc3F)n[nH]c1-2
### Response 15.6
